I'd be grateful if you could share measured viability, T/C for these entries.
System: CN0375-F725-PDC KRAS spheroid viability;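 further: spheroids exposed to agents for 7 days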
measurementNotes: Anticancer human tumor CN0375-F725-PDC patient-derived colon carcinoma cell line growth inhibition [KRAS2]
statedConditions: second compound 1 µM; first compound 0.316 µM; hits give low values; spheroids with HUVEC and MSC
One number for each entry, in %.

>>> observed("COc1cc2nccc(Oc3ccc(NC(=O)C4(C(=O)Nc5ccc(F)cc5)CC4)cc3)c2cc1OC + CNCc1ccccc1-c1csc(C(C)Nc2nc(C)nc3cc(OC)c(OC)cc23)c1")
19.5
>>> observed("COC(=O)c1ccc2c(C(=Nc3ccc(N(C)C(=O)CN4CCN(C)CC4)cc3)c3ccccc3)c(O)[nH]c2c1 + COc1cc2nc(C)nc(NC(C)c3cc(N)cc(C(F)(F)F)c3)c2cc1OC1CCOC1")
85
>>> observed("CC1OCC2(CCN(c3cnc(Sc4ccnc(N)c4Cl)c(N)n3)CC2)C1N (stereo not given) + COc1cc2nc(C)nc(NC(C)c3cc(N)cc(C(F)(F)F)c3)c2cc1OC1CCOC1")
81.3

Go through the items and report each one's viability, T/C.
1. CCN1CCN(Cc2ccc(Nc3ncc(F)c(-c4cc(F)c5nc(C)n(C(C)C)c5c4)n3)nc2)CC1 + CC1OCC2(CCN(c3cnc(Sc4ccnc(N)c4Cl)c(N)n3)CC2)C1N
2. Cn1nccc1Nc1nccc(-c2cc3c(s2)C(C)(C)N(CCN2CCOCC2)C3=O)n1 + COc1cc2nc(C)nc(NC(C)c3cc(N)cc(C(F)(F)F)c3)c2cc1OC1CCOC1

A)
1. 82.9
2. 63.8
